src = the RNAGym collection of RNA variant scans (doi:10.7554/elife.80360)

B1: Twister Ribozyme (parent)
chain: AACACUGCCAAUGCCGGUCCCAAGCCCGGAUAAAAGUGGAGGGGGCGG

Variants of: B1
Method: self-cleavage, relative activity (ratio to wild type); higher = more cleavage; co-transcriptional
Please respond with reported self-cleavage for every item in the list.
Numbers only.

Recorded results for 10 variants are shown here.
Problem: // Input: U18C C19U . Output its self-cleavage only.
Result: 0.247

Problem: // Input: A2G G39A . Output its self-cleavage only.
Result: 0.143

Problem: // Input: A10G C27U . Output its self-cleavage only.
Result: 1.01

Problem: // Input: G17C U31A . Output its self-cleavage only.
Result: 0.138

Problem: // Input: A11C G17C . Output its self-cleavage only.
Result: 0.0996

Problem: // Input: A1C G43A . Output its self-cleavage only.
Result: 0.135

Problem: // Input: G7U U31G . Output its self-cleavage only.
Result: 0.131

Problem: // Input: C25A C27A . Output its self-cleavage only.
Result: 0.0772

Problem: // Input: G24C A33U . Output its self-cleavage only.
Result: 0.0768

Problem: // Input: C8A C25U . Output its self-cleavage only.
Result: 0.125

Parameter requested: self-cleavage. Apply to each item below.
1. C19G C46G
2. G17U G29A
3. G16C A32G
4. U6A G17A
5. G17C G47A
6. C3G U18C

Result:
1. 0.165
2. 0.118
3. 0.518
4. 0.181
5. 0.0753
6. 0.147

Parameter requested: self-cleavage. Apply to each item below.
1. A23C A30G
2. U6G C15G
3. A2G A33G
4. A22G A40C
5. C8U C20U
6. A1C G17U

Result:
1: 0.385; 2: 0.0391; 3: 0.442; 4: 0.11; 5: 0.308; 6: 0.166
